The origin of these recorded values is PubChem BioAssay AID686970.

test: qHTS for induction of synthetic lethality in tumor cells producing 2HG: qHTS for the HT-1080-NT fibrosarcoma cell line; details: HT-1080-NT fibrosarcoma viability, CellTiter-Glo ATP luminescence, 48 h; series mostly up to 46.1 µM;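 also: NT is the 2HG producing partner of a matched IDH1 knockdown line; nearly all actives have a fitted effect of over 55% in size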
The campaign covered roughly 360,000 compounds. About 6,000 (1.7%) were called active. Another 8% or so got no clear call; they are omitted. Calls follow the shape of the dose curve; as a rule, active = well fitted cell-killing curve with a large enough effect; inconclusive = small, poorly fitted or top-dose-only effect, or effect the other way; inactive = flat fitted curve, though single readings scatter. This excerpt belongs to a sample that is enriched for actives.
Mark one answer only. Choices: active, inactive

1) COCc1[nH]nc2c1C(C1C=CCCC1)C(C#N)=C(N)O2 (stereo unspecified) ... active
2) CCc1ccc(C2C(C#N)=C(N)Oc3n[nH]c(CC(=O)OC)c32)cc1 (stereo unspecified) ... inactive
3) COc1ccccc1NC(=O)COC(=O)COc1ccccc1F ... inactive
4) O=Cc1cn(CCOc2ccc(F)cc2)c2ccccc12 ... inactive
5) COc1ccc(C(C)C)cc1-c1ccc2nncn2c1 ... inactive

Moving on to the next molecule.
Tell me the assay call for COc1cc(C2C(C#N)=C(N)Oc3n[nH]c(-c4ccccn4)c32)cc(OC)c1OC (stereo unspecified) please.
inactive

* * *

assay: qHTS for induction of synthetic lethality in tumor cells producing 2HG: qHTS for the HT-1080-NT fibrosarcoma cell line; conditions: HT-1080-NT fibrosarcoma viability, CellTiter-Glo ATP luminescence, 48 h; series mostly up to 46.1 µM;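 also: NT is the 2HG producing partner of a matched IDH1 knockdown line; nearly all actives have a fitted effect of over 55% in size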
Among all 360,000 compounds or so, about 6,000 (1.7%) were called active. Inconclusive results (about 8%) are left out. Calls follow the shape of the dose curve; as a rule, active = well fitted cell-killing curve with a large enough effect; inconclusive = small, poorly fitted or top-dose-only effect, or effect the other way; inactive = flat fitted curve, though single readings scatter. This excerpt belongs to a sample that is enriched for actives.
Mark one answer only. Choices: 1 (yes) (active), 0 (no) (inactive)

Please review the following examples before continuing.
1. CN(C)CCN1CCN(c2cc(-c3cccc(Cl)c3)nc3ccnn23)CC1 ... 0 (no)
2. NC(=O)NC(CC(=O)NNC(=O)c1ccccn1)c1ccc(Cl)cc1 (stereo not given) ... 0 (no)
3. Cc1nc(C(F)(F)F)ccc1C(=O)N1CCC1(C)C(=O)NS(=O)(=O)c1ccc(F)cc1F (stereo not given) ... 0 (no)
4. NC(=O)CSc1nnc(-c2cccc(S(=O)(=O)N3CCOCC3)c2)o1 ... 0 (no)

Tell me the assay call for `c1ccc2c(c1)nnn2-c1ccncc1` please.
0 (no)

Tell me the assay call for `COC(=O)C[C@@H]1C=C[C@@H](NS(=O)(=O)c2cccc(OC)c2)[C@@H](CO)O1` please.
0 (no)

Tell me the assay call for `Cc1ccc([C@H]2C[C@H](O)[C@@H](n3cc(COC(=O)c4ccccc4)nn3)CN2C(=O)C2CCCCC2)cc1` please.
0 (no)

Tell me the assay call for `Cc1ccc(C(=O)Nc2c(-c3ccccc3)[nH][nH]c2=O)cc1` please.
0 (no)

Tell me the assay call for `CC(C)C[C@H]1CNC(=O)C(=O)N1C[C@@H]1CCCN1C[C@H](Cc1ccccc1)N1C[C@H](CC(C)C)N(CC2CCCCCC2)C(=O)C1=O` please.
0 (no)

Tell me the assay call for `C=CCNc1cnn(-c2ccc(C)cc2)c(=O)c1Cl` please.
0 (no)

Tell me the assay call for CC1(Oc2ccccc2-c2ccno2)CCN(Cc2ccc(-c3ccccc3)o2)C1 (stereo not given) please.
0 (no)

Tell me the assay call for CCCCN(CCCC)CCC(O)c1cc2c(Cl)cc(Cl)cc2c2cc(C(F)(F)F)ccc12 (stereo not given) please.
1 (yes)

Tell me the assay call for `OC[C@@H]1CN(Cc2ccc(Cl)cc2)C[C@H](n2cnc3c(NCc4ccncc4)ncnc32)O1` please.
0 (no)

Tell me the assay call for `C#Cc1cc(N2CCN(C(=O)c3ccoc3)CC2)n2nc(-c3cccc(Cl)c3)cc2n1` please.
1 (yes)

Tell me the assay call for `COc1ccccc1N1CCN(C(=O)c2c(-c3c(Cl)cccc3Cl)noc2C)CC1` please.
0 (no)

Tell me the assay call for `COc1cc(CNc2ncnc3c2ncn3[C@H]2CN(Cc3cccs3)C[C@@H](CO)O2)cc(OC)c1OC` please.
0 (no)
